- tgt: H1 Histamine (Homo sapiens, UniProt P35367)
- Sequence (P35367 whole entry): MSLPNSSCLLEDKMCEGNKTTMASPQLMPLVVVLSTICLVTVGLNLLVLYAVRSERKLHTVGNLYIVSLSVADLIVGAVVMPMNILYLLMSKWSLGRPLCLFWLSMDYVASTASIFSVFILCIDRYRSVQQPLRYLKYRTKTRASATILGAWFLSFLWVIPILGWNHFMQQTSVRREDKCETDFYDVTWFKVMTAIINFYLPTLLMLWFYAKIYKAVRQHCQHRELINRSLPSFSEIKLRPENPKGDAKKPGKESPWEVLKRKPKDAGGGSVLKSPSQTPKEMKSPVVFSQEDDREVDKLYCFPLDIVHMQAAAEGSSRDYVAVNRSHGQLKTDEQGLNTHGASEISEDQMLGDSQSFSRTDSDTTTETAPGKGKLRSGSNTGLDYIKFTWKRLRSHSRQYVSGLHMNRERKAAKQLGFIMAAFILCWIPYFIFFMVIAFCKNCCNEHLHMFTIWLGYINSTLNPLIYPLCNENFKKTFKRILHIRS
assay-readout: Ki

Query :: What measured Ki goes with COc1cccc(OC)c1NC(=O)c1ccc(Cc2cc3c(cc2C)C(C)(C)CCC3(C)C)o1 ?
Result :: > 1000 nM

* * *

- tgt: CCKA (Homo sapiens, UniProt P32238)
- Sequence (P32238 1-428): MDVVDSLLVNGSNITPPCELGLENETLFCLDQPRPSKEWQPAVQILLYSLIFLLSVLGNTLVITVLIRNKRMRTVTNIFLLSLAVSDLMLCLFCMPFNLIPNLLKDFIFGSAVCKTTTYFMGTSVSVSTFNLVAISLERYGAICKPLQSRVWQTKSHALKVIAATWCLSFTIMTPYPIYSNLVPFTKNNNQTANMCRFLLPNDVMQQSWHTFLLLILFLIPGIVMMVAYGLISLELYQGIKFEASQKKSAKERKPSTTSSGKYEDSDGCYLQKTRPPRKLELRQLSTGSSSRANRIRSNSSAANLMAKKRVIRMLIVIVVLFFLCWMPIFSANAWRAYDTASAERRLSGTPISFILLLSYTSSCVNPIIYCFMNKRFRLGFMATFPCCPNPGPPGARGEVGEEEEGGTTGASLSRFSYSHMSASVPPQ
- method-summary: biochemical
assay-readout: Ki

Query :: # get_value(readout='Ki', item= COc1cccc(OC)c1NC(=O)c1ccc(Cc2cc3c(cc2C)C(C)(C)CCC3(C)C)o1 [Compound 20] )
Result :: > 1000 nM
